# Protocol summary: p53 small molecule agonists, cell-based qHTS assay with human liver microsomes: qHTS cell viability counter screen (AID 1963579); further: nearly all actives have a fitted effect of over 45% in size
# Study conditions: p53RE-bla HCT-116 viability, ATP luminescence, 16 h, HLM; series mostly up to 66 µM
Records with an inconclusive call do not appear. The source made the active and inactive calls. The call rests on the fitted dose curve.
Returns: one label drawn from true (1) = active, false (0) = inactive

// outcome(item) with item = CC(C)(C)c1cc([N+](=O)[O-])cc([N+](=O)[O-])c1O
false (0)

// outcome(item) with item = CCCCCCCCBr
false (0)

// outcome(item) with item = N#Cc1sc2c(=O)c3ccccc3c(=O)c=2sc1C#N
true (1)

// outcome(item) with item = CCC(C)Nc1c([N+](=O)[O-])cc(C(C)(C)C)cc1[N+](=O)[O-] (stereo not drawn)
false (0)

// outcome(item) with item = CN(C)CCc1c[nH]c2ccc(O)cc12
false (0)

// outcome(item) with item = CCCCS(=O)(=O)Cl
false (0)

// outcome(item) with item = C#C[C@]1(O)C=C[C@H]2[C@@H]3CCC4=CC(=O)CC[C@@H]4[C@H]3CC[C@@]21CC
false (0)

// outcome(item) with item = CC(=O)[O-].[Tl+]
false (0)

// outcome(item) with item = COc1ccc(C(c2ccc(OC)cc2)C(Cl)(Cl)Cl)cc1
false (0)

// outcome(item) with item = N#CSCc1ccccc1
false (0)

// outcome(item) with item = CN[C@@H](C)[C@H](O)c1ccccc1
false (0)

// outcome(item) with item = CC(C)NCC(O)c1ccc(N)c(C#N)c1 (stereo not drawn)
false (0)

// outcome(item) with item = Cc1c([N+](=O)[O-])cc2c(c1[N+](=O)[O-])C(C)(C)CC2(C)C
false (0)

// outcome(item) with item = Brc1ccccc1
false (0)

// outcome(item) with item = CCC1(C2=NCCN2)Cc2ccccc2O1 (stereo not drawn)
false (0)

// outcome(item) with item = CCCCN(CCCC)C(=S)[S-].CCCCN(CCCC)C(=S)[S-].[Ni+2]
false (0)

// outcome(item) with item = CN(C)[C@@H]1C(=O)C(C(N)=O)=C(O)[C@@]2(O)C(=O)C3=C(O)c4c(O)ccc(Cl)c4[C@@](C)(O)[C@H]3C[C@@H]12
false (0)

// outcome(item) with item = CC(=O)CCc1ccc2c(c1)OCO2
false (0)

// outcome(item) with item = N#CCCSCCC#N
false (0)

// outcome(item) with item = CC[C@]1(O)CC[C@H]2[C@@H]3CCC4=CCCC[C@@H]4[C@H]3CC[C@@]21C
false (0)

// outcome(item) with item = CNC(=O)O/N=C(/CSC)C(C)(C)C
false (0)

// outcome(item) with item = CCS(=O)(=O)c1cccnc1S(=O)(=O)NC(=O)Nc1nc(OC)cc(OC)n1
false (0)

// outcome(item) with item = CC(=O)[O][Pb]([c]1ccccc1)([c]1ccccc1)[c]1ccccc1
true (1)

// outcome(item) with item = CCCCCCCCCCCCCCC(Br)C(=O)O (stereo not drawn)
false (0)

// outcome(item) with item = COP(=S)(OC)Oc1ccc([N+](=O)[O-])c(C)c1
false (0)

// outcome(item) with item = Fc1ccc(C(OCCN2CCN(CCCc3ccccc3)CC2)c2ccc(F)cc2)cc1
false (0)

// outcome(item) with item = [Cl][Sn]([c]1ccccc1)([c]1ccccc1)[c]1ccccc1
true (1)

// outcome(item) with item = COc1cnc(OC)n2nc(NS(=O)(=O)c3c(OCC(F)F)cccc3C(F)(F)F)nc12
false (0)

// outcome(item) with item = CCOC(C(=O)OCCN(C)C)(c1ccccc1)c1ccccc1
false (0)

// outcome(item) with item = O=c1[nH]oc2c1CCNC2
false (0)

// outcome(item) with item = CCCN
false (0)

// outcome(item) with item = Clc1ccccc1N1CCNCC1
false (0)

// outcome(item) with item = O=C(Nc1ccccc1)Nc1cnns1
false (0)

// outcome(item) with item = CCCC[N+](CCCC)(CCCC)CCCC
false (0)

// outcome(item) with item = O=S(=O)(NS(=O)(=O)C(F)(F)F)C(F)(F)F
false (0)

// outcome(item) with item = CN1C(=O)COc2c(C(=O)NC3CN4CCC3CC4)cc(Cl)cc21 (stereo not drawn)
false (0)

// outcome(item) with item = CSc1nc(N=[N+]=[N-])nc(NC(C)C)n1
false (0)

// outcome(item) with item = C[C@H]1CCC[C@H](O)CCCCCc2cc(O)cc(O)c2C(=O)O1
false (0)

// outcome(item) with item = O=C(N[C@H]1CN2CCC1CC2)c1cc2ccoc2cn1
false (0)

// outcome(item) with item = Nc1ccc2c(c1)Cc1ccccc1-2
false (0)

// outcome(item) with item = O=[N+]([O-])c1ccc2c3c(cccc13)CC2
false (0)

// outcome(item) with item = C[C@H](CN1CCOCC1)C(C(=O)N1CCCC1)(c1ccccc1)c1ccccc1
false (0)

// outcome(item) with item = Oc1cccc(-c2ccccc2)c1
false (0)

// outcome(item) with item = COC(=O)C(C)N(C(=O)Cc1ccccc1)c1c(C)cccc1C (stereo not drawn)
false (0)

// outcome(item) with item = C=CC[C@]1(O)CC[C@H]2[C@@H]3CCC4=CC(=O)CCC4=C3C=C[C@@]21C
false (0)

// outcome(item) with item = CCCC(Cn1cncn1)c1ccc(Cl)cc1Cl (stereo not drawn)
false (0)

// outcome(item) with item = CNNC
false (0)

// outcome(item) with item = Clc1cc(C(Cl)(Cl)Cl)cnc1Cl
false (0)

// outcome(item) with item = CCC(C(N)=O)N1CCCC1=O (stereo not drawn)
false (0)

// outcome(item) with item = CON(C)C(=O)Nc1ccc(Br)cc1
false (0)

// outcome(item) with item = N#CN
false (0)

// outcome(item) with item = CCC1(c2cnc[nH]2)Cc2ccccc2C1
false (0)

// outcome(item) with item = CC(C)=CCOc1c2occc2cc2ccc(=O)oc12
false (0)

###

# Assayed system: Beta-2 adrenergic receptor (Homo sapiens)
# Protocol summary: Adrenergic beta2 receptor (ADRB2) small molecule antagonists, cell-based qHTS assay (AID 1963592); further: nearly all actives have a fitted effect of over 50% in size
# Study conditions: CHO-ADRB2 cells, isoproterenol-stimulated cAMP HTRF ratio, 0.5 h; series mostly up to 92.4 µM
Records with an inconclusive call do not appear. Activity calls are given as the source filed them. Calls come from the whole dose curve.
Returns: one label drawn from active, inactive

// outcome(item) with item = NCC1(CC(=O)O)CCCCC1
inactive

// outcome(item) with item = BrCBr
inactive

// outcome(item) with item = C#C[C@]1(O)C=C[C@H]2[C@@H]3CCC4=CC(=O)CC[C@@H]4[C@H]3CC[C@@]21CC
inactive

// outcome(item) with item = COP(=O)(OC)SCn1c(=O)oc2cc(Cl)cnc21
inactive

// outcome(item) with item = C=CC(=O)OCC(COC(=O)C=C)(COC(=O)C=C)COC(=O)C=C
inactive

// outcome(item) with item = O=C(Nc1ccc(F)cc1F)c1cccnc1Oc1cccc(C(F)(F)F)c1
inactive

// outcome(item) with item = O=C(NC(=O)c1c(F)cccc1F)Nc1cc(Cl)c(OC(F)(F)C(F)F)c(Cl)c1
inactive

// outcome(item) with item = CC1(C)CN=C(NN=C(/C=C/c2ccc(C(F)(F)F)cc2)/C=C/c2ccc(C(F)(F)F)cc2)NC1
inactive

// outcome(item) with item = OC(c1ccccc1)(c1ccccc1)C1CCNCC1
inactive

// outcome(item) with item = S=C=NCCc1ccccc1
inactive

// outcome(item) with item = O=S(=O)(O)C(F)(F)C(F)(F)C(F)(F)C(F)(F)F
inactive

// outcome(item) with item = O=C(NC(=O)c1c(F)cccc1F)Nc1cc(Cl)c(F)c(Cl)c1F
inactive

// outcome(item) with item = COP(=S)(OC)Oc1cc(Cl)c(I)cc1Cl
inactive

// outcome(item) with item = c1ccc2c(c1)CCNC2
inactive

// outcome(item) with item = CCCC[N+](=O)[O-]
inactive

// outcome(item) with item = CN(C)C1CSSSC1
inactive

// outcome(item) with item = CC(C)CC#N
inactive

// outcome(item) with item = COC(=O)C(C)N(C(=O)Cc1ccccc1)c1c(C)cccc1C (stereo not drawn)
inactive

// outcome(item) with item = CC(Cc1ccc(C(C)(C)C)cc1)CN1C[C@@H](C)O[C@@H](C)C1 (stereo partly drawn)
inactive

// outcome(item) with item = CCOC(=O)C(Cl)Cc1cc(-n2nc(C)n(C(F)F)c2=O)c(F)cc1Cl (stereo not drawn)
inactive

// outcome(item) with item = Oc1ccc2[nH]cc(CCCCN3CC=C(c4ccccc4)CC3)c2c1
active

// outcome(item) with item = O=C1c2ccccc2C(=O)C1C(=O)C(c1ccccc1)c1ccc(Cl)cc1 (stereo not drawn)
inactive

// outcome(item) with item = CN1[C@@H]2CC[C@H]1CC(OC(=O)c1cc(Cl)cc(Cl)c1)C2 (stereo partly drawn)
inactive

// outcome(item) with item = CN=CNc1ccc(C)cc1C
inactive

// outcome(item) with item = Cc1cc(Cl)ccc1O[C@H](C)C(=O)O
inactive

// outcome(item) with item = CCCOC(=O)Cc1ccc(OCC(=O)N(CC)CC)c(OC)c1
inactive

// outcome(item) with item = Clc1ccc2ccccc2c1
inactive

// outcome(item) with item = CCCC[N+](CCCC)(CCCC)CCCC
inactive

// outcome(item) with item = S=C=Nc1ccccc1
inactive

// outcome(item) with item = CCNP(=S)(OC)O/C(C)=C/C(=O)OC(C)C (stereo not drawn)
inactive

// outcome(item) with item = CC(=O)O[C@H]1CC[C@@]2(C)C(=CC[C@@H]3[C@@H]2CC[C@]2(C)C(=O)CC[C@@H]32)C1
inactive

// outcome(item) with item = CCCCNC(=O)OCC#CI
inactive

// outcome(item) with item = Cn1c(CCCC(=O)O)nc2cc(N(CCCl)CCCl)ccc21
inactive

// outcome(item) with item = C/C=C/C=O
inactive

// outcome(item) with item = O=C(c1ccccc1)C(Cl)Cl
inactive

// outcome(item) with item = CN1C(=O)CN=C(c2ccccc2)c2cc([N+](=O)[O-])ccc21
inactive

// outcome(item) with item = NNCCO
inactive

// outcome(item) with item = CN[C@@H](C)[C@H](O)c1ccccc1
inactive

// outcome(item) with item = COc1ccccc1N1CCNCC1
active

// outcome(item) with item = CSC(C)(C)/C=N/O
inactive

// outcome(item) with item = CCCSP(=S)(OCC)Oc1ccc(SC)cc1 (stereo not drawn)
inactive

// outcome(item) with item = CCCCCCCCBr
inactive

// outcome(item) with item = CCSCc1ccccc1OC(=O)NC
inactive

// outcome(item) with item = [O]=[Cd]
inactive

// outcome(item) with item = COP(=O)(OC)O/C(=C/Cl)c1cc(Cl)c(Cl)cc1Cl
inactive

// outcome(item) with item = O=P(O)(O)c1ccccc1
inactive

// outcome(item) with item = CN1[C@@H]2CC[C@H]1CC(O)C2 (stereo partly drawn)
inactive

// outcome(item) with item = Cc1ncc(C[n+]2csc(CCO)c2C)c(N)n1
inactive

// outcome(item) with item = CCOC(=O)OC1=C(c2cc(C)ccc2C)C(=O)NC12CCC(OC)CC2 (stereo not drawn)
inactive

// outcome(item) with item = [F][Sn]([c]1ccccc1)([c]1ccccc1)[c]1ccccc1
inactive

// outcome(item) with item = C[C@@H]1O[C@@H](O[C@@H]2C=C3CC[C@@H]4[C@H](CC[C@]5(C)[C@@H](c6ccc(=O)oc6)CC[C@]45O)[C@@]3(C)CC2)[C@H](O)[C@H](O)[C@H]1O
inactive

// outcome(item) with item = S=C(SSC(=S)N1CCCCC1)N1CCCCC1
inactive

// outcome(item) with item = Nc1c(Cl)c(Cl)c(Cl)c(Cl)c1Cl
inactive

Recorded values, source PubChem BioAssay (Tox21).
